Source listed as ChEMBL document CHEMBL1138353.

Recorded measurements of Drug uptake, one per entry
Tested on: Thyroid gland
Test: Biodistribution in 9L cells bearing Fischer 344 rat thyroid at 15 to 30 uCi, iv after 60 mins
Type: ADME, organism-based
Conditions: in vivo, 1 h
test.readout: Drug uptake (%ID/organ)

smiles.repr | assayed.target | test.readout | unit | experimental.value
C[C@](N)(/C=C/[123I])C(=O)O | Thyroid gland | Drug uptake | %ID/organ | 0.24
C[C@@](N)(/C=C/[131I])C(=O)O | Thyroid gland | Drug uptake | %ID/organ | 0.25

###

This section presents compounds with their documented Drug uptake values.
Tested on: Thyroid gland
Assay: Biodistribution in 9L cells bearing Fischer 344 rat thyroid at 15 to 30 uCi, iv after 120 mins
Type: ADME, organism-based
Details: in vivo, 2 h
test.readout: Drug uptake (%ID/organ)

smiles.repr | test.readout | experimental.value
C[C@](N)(/C=C/[123I])C(=O)O | Drug uptake | 0.18
C[C@@](N)(/C=C/[131I])C(=O)O | Drug uptake | 0.36
